Experimental details: MTT proliferation / drug combination assay
Condition description: human
Readout type: IC50 at 48 h

Entry `CN1CCC(COc2cnc(-c3cccc(Cn4nc(-c5cccc(C#N)c5)ccc4=O)c3)nc2)CC1` has what IC50 at 48 h?
16.5 µM
